- assay.system: human B2 receptor (Homo sapiens)
- Construct: human B2 receptor expressed in human fibroblasts W138; endogenous in cells; host or cells: human fibroblasts W138 (WI-38)
- Sequence (P30411 1-391): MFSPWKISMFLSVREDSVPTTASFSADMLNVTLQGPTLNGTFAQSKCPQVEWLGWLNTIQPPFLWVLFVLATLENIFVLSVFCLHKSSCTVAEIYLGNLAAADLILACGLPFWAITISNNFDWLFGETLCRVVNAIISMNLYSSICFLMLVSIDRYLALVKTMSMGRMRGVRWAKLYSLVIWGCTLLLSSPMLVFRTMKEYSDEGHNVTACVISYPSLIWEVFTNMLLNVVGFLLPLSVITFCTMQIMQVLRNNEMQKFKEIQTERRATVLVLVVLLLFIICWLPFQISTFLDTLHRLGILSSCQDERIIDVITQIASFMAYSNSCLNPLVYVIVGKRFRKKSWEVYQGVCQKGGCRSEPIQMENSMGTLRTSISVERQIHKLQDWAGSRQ
- assay.notes: binding to the human B2 receptor expressed in human fibroblasts W138
Where a name gives a salt, the structure may show the parent alone.
Reported Ki values follow for various compounds
measure: Ki

compound="Cc1cc(C)c2cccc(OCc3c(Cl)ccc(S(=O)(=O)NC4(C(=O)N5CCC(N6CCN(C(=O)[C@@H](N)CCCNC(=N)N)CC6)CC5)CCCC4)c3Cl)c2n1 [Example 38]" measurement="0.501 nM"
compound="Cc1cc(C)c2cccc(OCc3c(Cl)ccc(S(=O)(=O)NC4(C(=O)N5CCC(C[N+](C)(C)CCCCC[N+](C)(C)C)CC5)CCCC4)c3Cl)c2n1 [Example 86]" measurement="0.398 nM"
compound="Cc1ccc2cccc(OCc3c(Cl)ccc(S(=O)(=O)NC(C)(C)C(=O)N4CCN(C(=O)[C@H](N)CCCNC(=N)N)CC4)c3Cl)c2n1 [Example 51]" measurement="0.398 nM"
compound="CCN=C(NCC)NCCC[C@H](N)C(=O)N1CCN(C(=O)C(C)(C)NS(=O)(=O)c2ccc(Cl)c(COc3cccc4ccc(C)nc34)c2Cl)CC1 [Example 41]" measurement="0.501 nM"
compound="Cc1ccc2cccc(OCc3c(Cl)ccc(S(=O)(=O)NC(C)(C)C(=O)N4CCN(C(=N)NCCCN)CC4)c3Cl)c2n1 [Example 31, tris trifluoroacetate]" measurement="0.398 nM"
compound="CC[C@@](C)(NS(=O)(=O)c1ccc(Cl)c(COc2cccc3c(C)cc(C)nc23)c1Cl)C(=O)N1CCN(C(=O)C[C@@H](N)CCCNC(=N)N)CC1 [Example 70]" measurement="0.631 nM"
compound="Cc1cc(C)c2cccc(OCc3c(Cl)ccc(S(=O)(=O)NC4(C(=O)N5CCN(C(=O)[C@H](N)CCCCNC(=N)N)CC5)CCCC4)c3Cl)c2n1 [Example 64, tris trifluoroacetate]" measurement="0.631 nM"

The measurements presented in this section are drawn from patent US7491825B2.
